target: affinity purified β2GPI-dependent antiphospholipid antibody; assay: Competitive inhibition ELISA: recombinant β2GPI proteins compete for antibody binding to coated full length recombinant β2GPI; design: species or system human; conditions: Ab 6626; read-out: 50% (concentration to give 50% inhibition)
attribute measured: IC50

molecule: ---45: recombinant β2GPI deletion mutant with domains 4, 5 (protein) GREVKCPFPSRPDNGFVNYPAKPTLYYKDKATFGCHDGYSLDGPEEIECTKLGNWSAMPSCKASCKLPVKKATVVYQGERVKIQEKFKNGMLHGDKVSFFCKNKEKKCSYTEDAQCIDGTIEVPKCFKEHSSLAFWKTDASDVKPCGHHHHHH
IC50: > 40 µM
--
molecule: recombinant β2GPI domain 5 with GlyHis6 (----5) (protein) GRASCKLPVKKATVVYQGERVKIQEKFKNGMLHGDKVSFFCKNKEKKCSYTEDAQCIDGTIEVPKCFKEHSSLAFWKTDASDVKPCGHHHHHH
IC50: > 47 µM
--
molecule: --345: recombinant β2GPI deletion mutant with domains 3, 4, 5 (protein) GRIICPPPSIPTFATLRVYKPSAGNNSLYRDTAVFECLPQHAMFGNDTITCTTHGNWTKLPECREVKCPFPSRPDNGFVNYPAKPTLYYKDKATFGCHDGYSLDGPEEIECTKLGNWSAMPSCKASCKLPVKKATVVYQGERVKIQEKFKNGMLHGDKVSFFCKNKEKKCSYTEDAQCIDGTIEVPKCFKEHSSLAFWKTDASDVKPCGHHHHHH
IC50: > 50 µM
--
molecule: 12---: recombinant β2GPI deletion mutant with domains 1 and 2 (protein) GRTCPKPDDLPFSTVVPLKTFYEPGEEITYSCKPGYVSRGGMRKFICPLTGLWPINTLKCTPRVCPFAGILENGAVRYTTFEYPNTISFSCNTGFYLNGADSAKCTEEGKWSPELPVCAPIIGHHHHHH
IC50: > 10 µM

molecule 1234-: recombinant β2GPI deletion mutant with domains 1, 2, 3, 4 (protein) GRTCPKPDDLPFSTVVPLKTFYEPGEEITYSCKPGYVSRGGMRKFICPLTGLWPINTLKCTPRVCPFAGILENGAVRYTTFEYPNTISFSCNTGFYLNGADSAKCTEEGKWSPELPVCAPIICPPPSIPTFATLRVYKPSAGNNSLYRDTAVFECLPQHAMFGNDTITCTTHGNWTKLPECREVKCPFPSRPDNGFVNYPAKPTLYYKDKATFGCHDGYSLDGPEEIECTKLGNWSAMPSCGHHHHHH , IC50 observed: > 8 µM

Per the record, -2345: recombinant β2GPI deletion mutant with domains 2-5 (protein) GRTPRVCPFAGILENGAVRYTTFEYPNTISFSCNTGFYLNGADSAKCTEEGKWSPELPVCAPIICPPPSIPTFATLRVYKPSAGNNSLYRDTAVFECLPQHAMFGNDTITCTTHGNWTKLPECREVKCPFPSRPDNGFVNYPAKPTLYYKDKATFGCHDGYSLDGPEEIECTKLGNWSAMPSCKASCKLPVKKATVVYQGERVKIQEKFKNGMLHGDKVSFFCKNKEKKCSYTEDAQCIDGTIEVPKCFKEHSSLAFWKTDASDVKPCGHHHHHH has IC50 of > 57 µM

Briefly, IC50 measured for 123--: recombinant β2GPI deletion mutant with domains 1, 2, 3 (protein) GRTCPKPDDLPFSTVVPLKTFYEPGEEITYSCKPGYVSRGGMRKFICPLTGLWPINTLKCTPRVCPFAGILENGAVRYTTFEYPNTISFSCNTGFYLNGADSAKCTEEGKWSPELPVCAPIICPPPSIPTFATLRVYKPSAGNNSLYRDTAVFECLPQHAMFGNDTITCTTHGNWTKLPECGHHHHHH : 0.8 µM
